# Test system: P. acnes (ATCC 6919)
# method-summary: Minimum Inhibitory Concentration (MIC) determination, microbroth dilution
# Type: cell-based, Propionibacterium acnes
# particulars: Cutibacterium acnes, ATCC6919; API alone; P. acnes ATCC 6919; 48 h anaerobic; ≥90% reduction in growth (OD600); read-out: individual MIC
endpoint-name: MIC (mM)

Before answering, review these 2 worked examples.
INSERT INTO measurements (molecule, quantitative_result) VALUES
  ('O=C(O)c1ccccc1O [Salicylic Acid, salicylic acid, reference compound]', 7.5),
  ('O=C(O)CCC(=O)O [DRM1, succinic acid]', 15);

a = O=C(O)CCCCCCCC(=O)O [Azelaic acid, azelaic acid, reference compound]
b = O=C(O)c1ccccn1 [Picolinic acid, picolinic acid]
Query: Response body: label of entry with the larger MIC; valid values a , b . Return value: the label identifying the chosen record.
Reply: a
(a: 7.5 mM, b: 1.88 mM)
